- target or test system: T1, human TIM-3 extracellular domain protein with hFc tag (hTIM-3-hFc) (human, UniProt Q8TDQ0 22-200)
- T1 construct: not shown: human IgG Fc fragment (hFc) of the pCpC vector
- T1 sequence: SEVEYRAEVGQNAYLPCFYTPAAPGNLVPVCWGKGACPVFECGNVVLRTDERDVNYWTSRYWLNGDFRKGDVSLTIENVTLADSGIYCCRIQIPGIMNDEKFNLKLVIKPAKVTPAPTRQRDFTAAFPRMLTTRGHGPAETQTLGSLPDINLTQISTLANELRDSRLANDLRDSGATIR
- assay explanation: ELISA, coated human TIM-3 ECD protein, 66.667 nM antibody
property label: OD450

Input line: Quick check: OD450 of 34B6D8 fully human TIM-3 antibody (human IgG4, kappa) (antibody, V domains shown) VH: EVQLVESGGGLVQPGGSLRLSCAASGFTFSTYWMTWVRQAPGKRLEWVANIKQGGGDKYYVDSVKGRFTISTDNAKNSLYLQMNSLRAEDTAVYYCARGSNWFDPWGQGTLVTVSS VL: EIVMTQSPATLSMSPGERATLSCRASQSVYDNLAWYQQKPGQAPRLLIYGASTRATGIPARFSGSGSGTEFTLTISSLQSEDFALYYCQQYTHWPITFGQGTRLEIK ?
Output line: 3.1

Input line: Quick check: OD450 of 39E5H1 fully human TIM-3 antibody (human IgG4, kappa) (antibody, V domains shown) VH: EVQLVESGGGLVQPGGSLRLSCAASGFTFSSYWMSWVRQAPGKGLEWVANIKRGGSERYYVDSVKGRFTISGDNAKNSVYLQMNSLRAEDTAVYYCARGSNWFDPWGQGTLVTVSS VL: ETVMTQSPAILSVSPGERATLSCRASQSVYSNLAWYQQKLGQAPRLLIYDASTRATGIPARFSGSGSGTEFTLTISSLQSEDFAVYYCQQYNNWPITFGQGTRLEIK ?
Output line: 3.01

***
Input line: Quick check: OD450 of 57F4E5 fully human TIM-3 antibody (human IgG4, kappa) (antibody, V domains shown) VH: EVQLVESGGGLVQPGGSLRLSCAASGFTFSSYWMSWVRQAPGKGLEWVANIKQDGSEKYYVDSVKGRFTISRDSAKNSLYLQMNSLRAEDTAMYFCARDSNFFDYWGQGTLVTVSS VL: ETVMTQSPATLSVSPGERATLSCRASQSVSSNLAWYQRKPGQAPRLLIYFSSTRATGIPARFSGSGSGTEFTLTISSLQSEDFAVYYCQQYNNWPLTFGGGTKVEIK ?
Output line: 3.06
